# Tested system: plasma purified human complement protein C3 (human) (UniProt P01024)
# Sequence (P01024 23-667, chain 1 of 2): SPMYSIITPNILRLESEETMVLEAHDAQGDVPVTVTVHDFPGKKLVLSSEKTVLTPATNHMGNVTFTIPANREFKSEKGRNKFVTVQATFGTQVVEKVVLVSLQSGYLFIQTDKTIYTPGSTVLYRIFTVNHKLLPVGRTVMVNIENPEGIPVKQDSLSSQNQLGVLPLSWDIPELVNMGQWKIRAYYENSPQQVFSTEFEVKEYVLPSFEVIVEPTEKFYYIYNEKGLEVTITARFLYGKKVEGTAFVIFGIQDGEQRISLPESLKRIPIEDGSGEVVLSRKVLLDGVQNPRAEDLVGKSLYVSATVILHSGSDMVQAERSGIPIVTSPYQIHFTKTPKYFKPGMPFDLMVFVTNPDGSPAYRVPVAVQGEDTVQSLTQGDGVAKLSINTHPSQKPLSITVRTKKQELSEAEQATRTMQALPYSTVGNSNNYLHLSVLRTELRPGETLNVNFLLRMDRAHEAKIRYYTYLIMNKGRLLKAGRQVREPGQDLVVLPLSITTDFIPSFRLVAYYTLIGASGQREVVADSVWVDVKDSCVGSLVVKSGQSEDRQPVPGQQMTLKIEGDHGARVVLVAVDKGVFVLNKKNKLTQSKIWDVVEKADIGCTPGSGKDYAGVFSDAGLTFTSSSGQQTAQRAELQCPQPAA
# Sequence (P01024 672-1663, chain 2 of 2): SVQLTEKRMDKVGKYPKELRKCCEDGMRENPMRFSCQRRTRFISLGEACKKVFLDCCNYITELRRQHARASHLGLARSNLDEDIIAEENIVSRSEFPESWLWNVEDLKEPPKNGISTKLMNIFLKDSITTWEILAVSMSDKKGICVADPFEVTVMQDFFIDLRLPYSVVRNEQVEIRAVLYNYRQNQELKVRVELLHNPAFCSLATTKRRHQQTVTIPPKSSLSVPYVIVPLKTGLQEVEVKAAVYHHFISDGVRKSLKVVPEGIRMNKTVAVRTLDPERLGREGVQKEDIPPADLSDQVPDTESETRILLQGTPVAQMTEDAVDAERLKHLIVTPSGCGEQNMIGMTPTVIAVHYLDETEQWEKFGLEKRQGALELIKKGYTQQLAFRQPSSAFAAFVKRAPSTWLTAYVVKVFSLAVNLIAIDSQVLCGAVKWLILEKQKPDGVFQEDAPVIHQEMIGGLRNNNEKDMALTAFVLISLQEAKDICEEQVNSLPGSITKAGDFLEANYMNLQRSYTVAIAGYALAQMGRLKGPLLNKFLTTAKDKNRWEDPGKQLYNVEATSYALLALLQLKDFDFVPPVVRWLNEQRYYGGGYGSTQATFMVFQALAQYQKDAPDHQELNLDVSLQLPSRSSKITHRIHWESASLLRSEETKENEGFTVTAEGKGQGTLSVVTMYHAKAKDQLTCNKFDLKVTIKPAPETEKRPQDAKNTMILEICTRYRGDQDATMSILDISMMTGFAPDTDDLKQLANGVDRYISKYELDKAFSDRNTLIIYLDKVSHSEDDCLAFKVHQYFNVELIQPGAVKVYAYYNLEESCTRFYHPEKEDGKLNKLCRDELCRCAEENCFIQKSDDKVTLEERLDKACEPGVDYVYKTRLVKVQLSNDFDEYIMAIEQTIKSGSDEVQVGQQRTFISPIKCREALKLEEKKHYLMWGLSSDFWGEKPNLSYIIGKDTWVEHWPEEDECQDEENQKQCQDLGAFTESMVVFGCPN
# Test: cell-based or functional assay
Measurement kind: EC50 of hC3 cleavage (nM)
Field format: number, assumed nM, no unit text.

// known answers, use as guide
# get_value(readout='EC50 of hC3 cleavage', item= MTSP-1 I41R/ins97aE/F97T/T98G/F99L/C122S/G151S/Q175L/Q192E (enzyme) VVGGTDADEGEWPWQVSLHALGQGHRCGASLISPNWLVSAAHCYIDDRGFRYSDPTQWTAFLGLHDQSQRSAPGVQERRLKRIISHPFFNDTEGLDYDIALLELEKPAEYSSMVRPISLPDASHVFPAGKAIWVTGWGHTQYGGTSALILQKGEIRVINQTTCENLLPQLITPRMMCVGFLSGGVDSCEGDSGGPLSSVEADGRIFQAGVVSWGDGCAQRNKPGVYTRLPLFRDWIKENTGV )
274

Query: EC50 of hC3 cleavage; subject: MTSP-1 Q38E/I41S/D60bV/F60eK/ins97aE/F97T/T98G/F99L/C122S/G151N/Q175L/Q192I (enzyme) VVGGTDADEGEWPWQVSLHALGEGHSCGASLISPNWLVSAAHCYIDVRGKRYSDPTQWTAFLGLHDQSQRSAPGVQERRLKRIISHPFFNDTEGLDYDIALLELEKPAEYSSMVRPISLPDASHVFPAGKAIWVTGWGHTQYGGTNALILQKGEIRVINQTTCENLLPQLITPRMMCVGFLSGGVDSCIGDSGGPLSSVEADGRIFQAGVVSWGDGCAQRNKPGVYTRLPLFRDWIKENTGV
19.1

Data request, read-out EC50 of hC3 cleavage, for MTSP-1 H40R/I41H/Y60gN/F97D/F99L/C122S/G151N/Q175K/Q192S/D217S/K224L (enzyme) VVGGTDADEGEWPWQVSLHALGQGRHCGASLISPNWLVSAAHCYIDDRGFRNSDPTQWTAFLGLHDQSQRSAPGVQERRLKRIISHPFFNDDTLDYDIALLELEKPAEYSSMVRPISLPDASHVFPAGKAIWVTGWGHTQYGGTNALILQKGEIRVINQTTCENLLPQKITPRMMCVGFLSGGVDSCSGDSGGPLSSVEADGRIFQAGVVSWGSGCAQRNLPGVYTRLPLFRDWIKENTGV
187

Given the binder MTSP-1 I41D/ins97aE/F97T/T98G/F99L/C122S/Q175L/Q192E (enzyme) VVGGTDADEGEWPWQVSLHALGQGHDCGASLISPNWLVSAAHCYIDDRGFRYSDPTQWTAFLGLHDQSQRSAPGVQERRLKRIISHPFFNDTEGLDYDIALLELEKPAEYSSMVRPISLPDASHVFPAGKAIWVTGWGHTQYGGTGALILQKGEIRVINQTTCENLLPQLITPRMMCVGFLSGGVDSCEGDSGGPLSSVEADGRIFQAGVVSWGDGCAQRNKPGVYTRLPLFRDWIKENTGV , what is its reported EC50 of hC3 cleavage?
157

New cases:
Could you share which EC50 of hC3 cleavage value was measured for MTSP-1 Q38H2I/I41S/F97T/ins97aE/T98G/F99L/C122S/Q175L/Q192V (enzyme) VVGGTDADEGEWPWQVSLHALGKGHSCGASLISPNWLVSAAHCYIDDRGFRYSDPTQWTAFLGLHDQSQRSAPGVQERRLKRIISHPFFNDTEGLDYDIALLELEKPAEYSSMVRPISLPDASHVFPAGKAIWVTGWGHTQYGGTGALILQKGEIRVINQTTCENLLPQLITPRMMCVGFLSGGVDSCVGDSGGPLSSVEADGRIFQAGVVSWGDGCAQRNKPGVYTRLPLFRDWIKENTGV ?
43
